For each record, write down the corresponding Ki.
The answer is to be given in nM; state only the numeric part.

The compound c1c[nH]cn1 , tested on Gamma-aminobutyric acid type B receptor subunit 1 (UniProt Q9Z0U4), showed Ki of 229

The compound NCc1cc(=O)[nH]o1 , tested on Gamma-aminobutyric acid type B receptor subunit 1 (UniProt Q9Z0U4), showed Ki of 10

The compound N[C@@H]1C(=O)N2C(C(=O)O)=C(CSc3cnn[nH]3)CS[C@H]12 , tested on Gamma-aminobutyric acid type B receptor subunit 1 (UniProt Q9Z0U4), showed Ki of 51
